molecular target: C-C chemokine receptor type 1 (Homo sapiens, UniProt P32246); assay: Antagonist activity at recombinant CCR1 (unknown origin) expressed in non-adherent cells co-expressing Galpha16 assessed as inhibition of MIP-1 alpha-induced calcium flux by Fluo-4 NW or Calcium 4 dye based FLIPR TETRA assay
Sequence (P32246 whole entry): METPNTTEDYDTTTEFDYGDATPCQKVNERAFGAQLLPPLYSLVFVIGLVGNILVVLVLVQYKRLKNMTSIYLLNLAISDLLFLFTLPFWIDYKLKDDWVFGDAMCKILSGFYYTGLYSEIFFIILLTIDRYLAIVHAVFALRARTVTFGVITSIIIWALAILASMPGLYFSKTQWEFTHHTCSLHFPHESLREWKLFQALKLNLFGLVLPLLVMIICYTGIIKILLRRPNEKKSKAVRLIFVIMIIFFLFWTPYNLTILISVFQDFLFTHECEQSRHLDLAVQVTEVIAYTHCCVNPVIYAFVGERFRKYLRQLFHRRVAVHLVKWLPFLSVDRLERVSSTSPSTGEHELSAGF
MEASURE: pIC50
# log scale: pIC50 equals minus log10 of the concentration in mol/L

Solved entries (count: 3):
Cc1c(C(=O)NCc2ccc(S(C)(=O)=O)cc2)cnn1-c1ccc(Cl)cc1 | 5.77
Cc1c(C(=O)NCc2cccc(C(F)(F)F)c2)cnn1-c1ccc(F)cc1 | 6.10
Cc1c(C(=O)NCc2cccc(C(F)(F)F)c2)nnn1-c1ccc(Cl)cc1 | 5.62

What the record says about `CC(C)[C@@H](NC(=O)NCC(C)(C)O)C(=O)N1CC[C@](O)(c2ccc(Cl)cc2)C(C)(C)C1` : pIC50 is 8.52
